procedureSummary: DUSP6 inhibitors restoring Erk phosphorylation by chemical complementation, primary imaging in DUSP6-transfected HeLa (AID 609)
runConditions: HeLa MKP-3 transfected, phospho-Erk imaging KS statistic; measured here: cell density z-score; at 10 µM; cells stimulated with TPA for 15 min
measuredMetric: z-score
// return just the number, without any unit appended

# query: z-score of entry c1cc(-c2nnc3sc(C4CCCCC4)nn23)ccn1
0.217

Query: z-score; subject: Cc1ccc(N(CC(O)CN2CCCC2)S(=O)(=O)c2ccc(C)cc2)cc1 (stereo unspecified)
1.32

Need z-score, item CCOC(=O)c1c(N)sc2c1CCC1C(=O)N(C3CCCCC3)C(=O)C21 (stereo unspecified)
-0.619

Please look up its z-score: CC(=O)Oc1ccccc1C1OC(=O)c2ccccc2N1C(C)=O (stereo unspecified)
-0.279

Given the molecule NC(=O)OCC(COC(N)=O)c1ccccc1 , what is its reported z-score?
1.02

Field request: z-score | item: CCCCOC(=O)Nc1ccc(S(=O)(=O)Nc2nc(C)cc(C)n2)cc1
0.944

# z-score lookup, item c1ccc(CN2CCN(c3nc(-c4ccccn4)nc4ccccc34)CC2)cc1
0.978

Please report the recorded z-score for Cc1cc(C)n(-c2nnc(C)n2/N=C/c2ccco2)n1 .
1.68

Given CC1CCCCN1C(=O)C12CCC(C)(/C(=N/O)C1)C2(C)C (stereo unspecified) , state its recorded z-score.
-1.18

// lookup z-score for CCCC(=O)Nc1ncnc2c1ncn2[C@@H]1O[C@@H]2COP(=O)(O)O[C@H]2[C@H]1OC(=O)CCC
0.217

What does the data say about its z-score? Entry: COC(=O)CSC1=C(C#N)C(=O)NC2(CCCCC2)S1
-0.563

Origin of the recorded values: PubChem BioAssay
